# experimentDescription: Apparent permeability from basolateral to apical side of the MDCK cells expressing MDR1 gene
# Format: ADME, cell-based, Canis lupus familiaris
# assaySetup: dog
Recorded Papp B→A for the following compounds
endpointName: Papp B→A

# chemicalString, endpointName, endpointResult
measured = [
    ("CN(C)S(=O)(=O)N(Cc1ccccc1-c1ccccc1)[C@H]1CCNC1", "Papp B→A", "68 ×10⁻⁶ cm/s"),
    ("CC(C)C(=O)N(Cc1ccccc1-c1ccccc1)[C@H]1CCNC1", "Papp B→A", "68 ×10⁻⁶ cm/s"),
    ("CCOC(=O)N(Cc1ccccc1-c1ccccc1)[C@H]1CCNC1", "Papp B→A", "44 ×10⁻⁶ cm/s"),
    ("O=C(N1CCCC1)N(Cc1ccccc1-c1ccccc1)[C@H]1CCNC1", "Papp B→A", "53 ×10⁻⁶ cm/s"),
    ("CS(=O)(=O)N(Cc1ccccc1-c1ccccc1)[C@H]1CCNC1", "Papp B→A", "51 ×10⁻⁶ cm/s"),
]
